- System: HepG2
- assay.summary: drug sensitivity score (DSS) for viability; higher = more toxic; extreme values may be limits of the assay
- condition.set: 72 h
Parameter: drug sensitivity score. Scope: all listed entries.
readout.label: drug sensitivity score

1) CCCn1c(=O)c2nc(-c3ccccc3)[nH]c2n(CCC)c1=O = 2.7
2) CC(=O)O[C@H]1C[C@H](O[C@H]2[C@@H](O)C[C@H](O[C@H]3[C@@H](O)C[C@H](O[C@H]4CC[C@@]5(C)[C@H](CC[C@@H]6[C@@H]5C[C@@H](O)[C@]5(C)[C@@H](C7=CC(=O)OC7)CC[C@]65O)C4)O[C@@H]3C)O[C@@H]2C)O[C@H](C)[C@H]1O[C@@H]1O[C@H](CO)[C@@H](O)[C@H](O)[C@H]1O [lanatoside-C] = 15
3) CCCOc1ccc(S(=O)(=O)N2CCN(CCO)CC2)cc1-c1nc2c(CCC)cn(CC)c2c(=O)[nH]1 = 0
4) Cc1cc2cc3c(C)cc(=O)oc3c(C)c2o1 = 2.9
5) O=C(NO)C1(CS(=O)(=O)c2ccc(Oc3ccc(Cl)cc3)cc2)CCOCC1 = 0
6) COc1ccc(CC(C)NCC(O)c2ccc(O)c(NC=O)c2)cc1 (stereo not given) = 0
7) CC1CS(=O)(=O)CCN1/N=C/c1ccc([N+](=O)[O-])o1 (stereo not given) = 0
8) CC(C)N(CCCNC(=O)Nc1ccc(C(C)(C)C)cc1)C[C@H]1O[C@@H](n2cc(Br)c3c(N)ncnc32)[C@H](O)[C@@H]1O = 0
9) O=C1Nc2ccc(I)cc2C1=Cc1cc(Br)c(O)c(Br)c1 = 1.8
10) N#CC(c1ccccc1)(c1ccccc1)c1ccccc1Cl = 0

* * *

Parameter: cell viability. Scope: all listed entries.
- System: Vero E6
- assay.summary: cell viability relative to DMSO; higher = less toxic
- condition.set: 72 h; 1 nM
readout.label: cell viability (%)

1. O=C(O)CN1C(=O)c2cccc3cccc(c23)C1=O = 94.8
2. CCOc1cc(/C=C2/C(=O)N(c3ccccc3)N=C2C)cc(Cl)c1OCC(=O)OC = 104
3. COC(=O)C1=C(C)NC(C)=C(C(=O)OC/C=C/c2ccccc2)C1c1cccc([N+](=O)[O-])c1 (centres undefined) = 93.8
4. CO/N=C(\C(=O)N[C@@H]1C(=O)N2C(C(=O)OCOC(=O)C(C)(C)C)=C(C)CS[C@H]12)c1csc(N)n1 = 91.5
5. O=c1cc(N2CCNCC2)oc2c(-c3ccccc3)cccc12 = 100
6. C[Se]C[C@H](N)C(=O)O = 104
7. Clc1cccc(N2CCNCC2)c1 = 88.9
8. CC(C)NCC(O)COc1cccc2[nH]ccc12 (centres undefined) = 99.2
9. Clc1ccc(C(Cn2ccnc2)OCc2csc3c(Cl)cccc23)c(Cl)c1 (centres undefined) = 102

* * *

- Tested on: Caco-2
- assay.summary: cell viability relative to DMSO; higher = less toxic
- condition.set: 72 h; 10000 nM
Parameter: cell viability. Scope: all listed entries.
readout.label: cell viability (%)

1. Cc1cc(=O)oc2c(C=O)c(O)ccc12 = 87.1
2. CC(C)(C)c1[nH]cnc1/C=c1\[nH]c(=O)/c(=C/c2ccccc2)[nH]c1=O = 37.6
3. C[Se]C[C@H](N)C(=O)O = 91.4
4. Cc1csc(S(=O)(=O)N(CC(C)C)c2cc3c(cc2OCc2ccc(C(=O)O)cc2)CCC3)n1 = 91.6
5. C=CCN1CC[C@]23c4c5ccc(O)c4O[C@H]2/C(=N/NC(=O)c2ccccc2)CC[C@@]3(O)[C@H]1C5 [naloxone-benzoylhydrazone] = 112
6. Cc1ccc(CCCO)c(NCc2ccc3nc(NCCCN4CCOCC4)n(Cc4nc(C)ccc4O)c3c2)c1 = 90
7. CC(C)(C)CC(C)(C)c1ccc(O)c(Cc2ccc(Cl)cc2Cl)c1 = 93.8
8. OC[C@H]1O[C@H]([S-])[C@H](O)[C@@H](O)[C@@H]1O.[Au+] = 84.2
9. NS(=O)(=O)c1cc(C(=O)O)cc(N2CCCC2)c1Oc1ccccc1 [piretanide] = 110
10. CN1CCN(c2ccc(-c3cccc(CN4CCOCC4)c3)cc2NC(=O)c2c[nH]c(=O)cc2C(F)(F)F)CC1 = 98.2
11. COc1cc(C[C@@H](CO)[C@H](CO)Cc2ccc(O)c(OC)c2)ccc1O [secoisolariciresinol-(-)] = 94.7
12. CN1CC[C@@H](NC(=O)Nc2ccc(C#N)cc2)C[C@@H]1c1nc2ccccc2[nH]1 = 83.5
13. CCN(CC)CCOc1ccccc1C(=O)CCc1ccccc1 = 100
14. NCCc1c[nH]c2ccc(C(N)=O)cc12 = 98.7
15. Cc1cc(Cn2cnc3c2C[C@@H](C(=O)O)N(C(=O)C(c2ccccc2)c2ccccc2)C3)ccc1N(C)C = 110
16. CO[C@@]1(NC(=O)CSC[C@@H](N)C(=O)O)C(=O)N2C(C(=O)O)=C(CSc3nnnn3C)CS[C@@H]21 = 98.5
17. Nc1cccc2c1C(=O)N(C1CCC(=O)NC1=O)C2=O (stereo not drawn) [pomalidomide] = 98.3
18. CC(C)(Cc1c[nH]c2ccc(Cl)cc12)NCCOc1ccccc1OCC1CC1 = 3.5

* * *

- Tested on: Vero E6
- assay.summary: cell viability relative to DMSO; higher = less toxic
- condition.set: 72 h; 1 nM
readout.label: cell viability (%)

1. C[C@H]1COc2c(C3(N)CC3)c(F)cc3c(=O)c(C(=O)O)cn1c23 = 93.7
2. COc1ccc2c(c1)c(C1=C(c3c[nH]c4ccccc34)C(=O)NC1=O)cn2CCCN(C)C = 108
3. Cc1ccc(C)c([C@H](O)CNC(C)C)c1 [benzenemethanol,-2,5-dimethyl-[[(1-methylethyl)amino]methyl]] = 103
4. C[N+]12CCC(CC1)C(OC(=O)C(O)(c1ccccc1)c1ccccc1)C2 (stereo not drawn) = 102
5. CC(C)(Cc1c[nH]c2ccc(Cl)cc12)NCCOc1ccccc1OCC1CC1 = 93.9
6. OC[C@H]1O[C@H](O[C@]2(CCl)O[C@H](CCl)[C@@H](O)[C@@H]2O)[C@H](O)[C@@H](O)[C@H]1Cl = 100
7. COc1ccc(CN(CCN(C)C)c2ccccn2)cc1 = 95.7
8. CC(C)(C)C(=O)Oc1ccc(S(=O)(=O)Nc2ccccc2C(=O)NCC(=O)O)cc1 = 107

* * *

- Tested on: HepG2
- assay.summary: drug sensitivity score (DSS) for viability; higher = more toxic; extreme values may be limits of the assay
- condition.set: 72 h
Where a name gives a salt, the structure may show the parent alone.
readout.label: drug sensitivity score

1) CCCCNc1c(C(=O)OCC)c(C)nc2c1cnn2CC [tracazolate] = 0
2) CC[C@H]1OC(=O)C[C@@H](O)[C@H](C)[C@@H](O[C@@H]2O[C@H](C)C[C@H](N(C)C)[C@H]2O)[C@@H](CC=O)C[C@@H](C)C(=O)/C=C/[C@]2(C)O[C@H]2[C@@H]1C = 3.7
3) CN1CC[C@@H](NC(=O)Nc2ccc(C#N)cc2)C[C@@H]1c1nc2ccccc2[nH]1 = 0
4) Nc1c2ccccc2nc2ccccc12 = 7.2
5) CC(C)(O)C(=O)Nc1ccc([N+](=O)[O-])c(C(F)(F)F)c1 [2-hydroxyflutamide] = 0
6) O=C(Nc1nc2cccc(-c3ccc(CN4CCS(=O)(=O)CC4)cc3)n2n1)C1CC1 = 2.3
7) CCCCCCN(CCCCCC)C(=O)Cc1c(-c2ccc(Cl)cc2)[nH]c2ccc(Cl)cc12 = 0
8) Cn1nnc(-c2ccc(-c3ccc(N4C[C@H](COP(=O)(O)O)OC4=O)cc3F)cn2)n1 [tedizolid-phosphate] = 6.1
9) CN1CCN(c2ccc(-c3cccc(CN4CCOCC4)c3)cc2NC(=O)c2c[nH]c(=O)cc2C(F)(F)F)CC1 = 0
10) Cn1c(-c2ccccc2)nnc1S(C)(=O)=O = 0
11) C=CCCCCCCCCC(=O)[O][Zn][O]C(=O)CCCCCCCCC=C [zinc-undecylenate] = 0
12) CCN(CCNC(=O)Nc1ccccc1Br)c1cccc(C)c1 = 0
13) Cc1ccc2c(c1)[C@]13CCCC[C@@H]1[C@H](C2)N(C)CC3 = 0
14) CN(C)CCc1ccc(O)cc1 = 0
15) CS(=O)(=O)c1ccc(-c2nnc(/C=C/c3nnc(-c4ccc(C#N)cc4)o3)n2-c2ccccc2Cl)nc1 = 0.1
16) N=C1N[C@H]2[C@H](CS[C@H]2CCCCC(=O)O)N1 = 0
17) CC(C)(C)C(=O)Oc1ccc(S(=O)(=O)Nc2ccccc2C(=O)NCC(=O)O)cc1 = 0
18) Cc1nc2c([nH]1)-c1ccccc1N(C(=O)c1ccc(NC(=O)c3ccccc3-c3ccccc3)cc1)CC2 = 0
19) CN(C)CC/C=C1/c2ccccc2COc2ccc(CC(=O)O)cc21 [Olopatadine hydrochloride (Opatanol)] = 0
20) COc1ccc(CN(CCN(C)C)c2ccccn2)cc1 = 0
21) C#C[C@]1(O)C=C[C@H]2[C@@H]3CCC4=CC(=O)CC[C@@H]4[C@H]3CC[C@@]21CC = 0
22) CO[C@H]1C[C@H](O[C@H]2CC[C@@]3(C)[C@H](CC[C@@H]4[C@@H]3CC[C@]3(C)[C@@H](C5=CC(=O)OC5)[C@@H](OC(C)=O)C[C@]43O)C2)O[C@@H](C)[C@@H]1O = 24.1
23) O=C(Oc1ccc([N+](=O)[O-])cc1)N1CCC(C(O)(c2ccc3c(c2)OCO3)c2ccc3c(c2)OCO3)CC1 = 0
24) c1cc(Cc2cnc[nH]2)ccn1 = 0
25) CCOC(=O)c1ccc(-c2ccc(OC(=O)N(C)Cc3cccc(-c4ccncc4)c3)cc2)cc1 = 2.9
26) COC(=O)C1=C(C)NC(C)=C(C(=O)OC/C=C/c2ccccc2)C1c1cccc([N+](=O)[O-])c1 (centres undefined) = 0
27) O=C(O)COc1cccc(-c2ocnc2-c2nc(-c3ccccc3)c(-c3ccccc3)o2)c1 = 0
28) CNC1CCCN(c2c(F)cc3c(=O)c(C(=O)O)cn(C4CC4)c3c2OC)C1 (centres undefined) = 0
29) CC(C)NCC(O)c1cc(O)cc(O)c1 (centres undefined) = 0
30) CC(=N)NCc1cccc(CN)c1 [1400W] = 0
31) CN1CCN(CC(=O)N2c3ccccc3C(=O)Nc3cccnc32)CC1 [pirenzepine] = 0
32) O=C(O)CN1C(=O)c2cccc3cccc(c23)C1=O = 0
33) c1ccc(C(NCc2cccnc2)(c2ccccc2)c2ccccc2)cc1 = 0
34) C=CCC1(CC(C)C)C(=O)NC(=O)NC1=O = 0

Attribution: the supplement of paper PMC13380429
